- Assay: Particle size distribution by sieve analysis
- Assay type: physicochemical
- Applied Conditions: US Mesh 60 (250 μm)
Readout Label: % CR (cumulative amount retained) (%)

a. COc1ccccc1OCC(O)CO (single isomer, unassigned) [GP-D, guaifenesin]
b. COc1ccccc1OCC(O)CO (single isomer, unassigned) [GP-B, guaifenesin]
c. COc1ccccc1OCC(O)CO (single isomer, unassigned) [GP-C, guaifenesin]
d. COc1ccccc1OCC(O)CO (single isomer, unassigned) [GP-A, guaifenesin]
Challenge: Let's sort these by % CR (cumulative amount retained), smallest first. Go ahead? List the labels in the requested order.
Response given: a, b, d, c

###

- Assay: Bulk density, VanKel cylinder
- Format: physicochemical
Readout Label: Bulk Density (g/cc)

COc1ccccc1OCC(O)CO (single isomer, unassigned) [GP-B, guaifenesin] :: 0.41
COc1ccccc1OCC(O)CO (single isomer, unassigned) [GP-D, guaifenesin] :: 0.40
COc1ccccc1OCC(O)CO (single isomer, unassigned) [GP-A, guaifenesin] :: 0.45
COc1ccccc1OCC(O)CO (single isomer, unassigned) [GP-C, guaifenesin] :: 0.35

###

- Assay: Particle size distribution by sieve analysis
- Assay type: physicochemical
- Applied Conditions: US Mesh 60 (250 μm)
Readout Label: % R (amount retained on screen) (%)

Consider the reported % R (amount retained on screen) for these compounds:
COc1ccccc1OCC(O)CO (single isomer, unassigned) [GP-C, guaifenesin] :: 1.2
COc1ccccc1OCC(O)CO (single isomer, unassigned) [GP-B, guaifenesin] :: 0

P. COc1ccccc1OCC(O)CO (single isomer, unassigned) [GP-D, guaifenesin]
Q. COc1ccccc1OCC(O)CO (single isomer, unassigned) [GP-A, guaifenesin]
Challenge: Record comparison, field % R (amount retained on screen): mark the lower of P and Q . Response format: the label of the selected entry.
Response given: P
(P: 0%, Q: 0.8%)

###

- Assay: Particle size distribution by sieve analysis
- Format: physicochemical
- Applied Conditions: US Mesh 40 (425 μm)
Readout Label: % R (amount retained on screen) (%)

Recorded results for 2 molecules are shown here.
COc1ccccc1OCC(O)CO (single isomer, unassigned) [GP-B, guaifenesin] :: 0.4
COc1ccccc1OCC(O)CO (single isomer, unassigned) [GP-A, guaifenesin] :: 0

1. COc1ccccc1OCC(O)CO (single isomer, unassigned) [GP-D, guaifenesin]
2. COc1ccccc1OCC(O)CO (single isomer, unassigned) [GP-C, guaifenesin]
Challenge: # returns the entry with the larger % R (amount retained on screen); inputs 1 and 2 Give the label under which the chosen entry appears.
Response given: 2

###

- Assay: Particle size distribution by sieve analysis
- Format: physicochemical
- Applied Conditions: US Mesh 325 (45 μm)
Readout Label: % CR (cumulative amount retained) (%)

Sample records with % CR (cumulative amount retained):
COc1ccccc1OCC(O)CO (single isomer, unassigned) [GP-A, guaifenesin] :: 76.8
COc1ccccc1OCC(O)CO (single isomer, unassigned) [GP-C, guaifenesin] :: 77.6

1. COc1ccccc1OCC(O)CO (single isomer, unassigned) [GP-D, guaifenesin]
2. COc1ccccc1OCC(O)CO (single isomer, unassigned) [GP-B, guaifenesin]
Challenge: Which record shows the lower % CR (cumulative amount retained): the first, 1 , or the second, 2 ? In your reply, give the label of the chosen option.
Response given: 2

###

- Assay: Particle size distribution by sieve analysis
- Assay type: physicochemical
- Applied Conditions: pan (<45 μm)
Readout Label: % R (amount retained) (%)

COc1ccccc1OCC(O)CO (single isomer, unassigned) [GP-A, guaifenesin] :: 23.2

1. COc1ccccc1OCC(O)CO (single isomer, unassigned) [GP-C, guaifenesin]
2. COc1ccccc1OCC(O)CO (single isomer, unassigned) [GP-D, guaifenesin]
3. COc1ccccc1OCC(O)CO (single isomer, unassigned) [GP-B, guaifenesin]
Challenge: // ascending sort on recorded % R (amount retained) Output spec: labels arranged per the requested ranking.
Response given: 2, 1, 3
(2: 10.4%, 1: 22.4%, 3: 42.0%)
